System: 425362-245-T-J1 tumor spheroids, viability % test/control;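 further: spheroids exposed to agents for 7 days; 100% = DMSO vehicle control viability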
experiment-summary: Anticancer human tumor 425362-245-T-J1 patient-derived melanoma cell line growth inhibition
assay-context: second compound 94.9 pM; first compound 3 µM; hits give low values; spheroids with HUVEC and MSC
Each entry below carries its recorded viability, T/C.
Note: unit % is implicit; provide only the numeric part.

The following molecules have reported results that may help.
{"columns": ["molecule", "target-desc", "viability, T/C, %"],
 "data": [
  ["O=C(c1cc(Cc2n[nH]c(=O)c3ccccc23)ccc1F)N1CCN(C(=O)C2CC2)CC1 + COc1cc2c(cc1O)CCNC21CSC2c3c(OC(C)=O)c(C)c4c(c3C(COC1=O)N1C(O)C3Cc5cc(C)c(OC)c(O)c5C(C21)N3C)OCO4", "425362-245-T-J1 tumor spheroids, viability % test/control", 36.3],
  ["Cn1ncnc1[C@H]1c2n[nH]c(=O)c3cc(F)cc(c23)N[C@@H]1c1ccc(F)cc1 + COc1cc2c(cc1O)CCNC21CSC2c3c(OC(C)=O)c(C)c4c(c3C(COC1=O)N1C(O)C3Cc5cc(C)c(OC)c(O)c5C(C21)N3C)OCO4", "425362-245-T-J1 tumor spheroids, viability % test/control", 1.23],
  ["CNCc1ccc(-c2cc(-c3nc(-c4ccc(S(=O)(=O)C(C)C)cc4)cnc3N)on2)cc1 + COc1cc2c(cc1O)CCNC21CSC2c3c(OC(C)=O)c(C)c4c(c3C(COC1=O)N1C(O)C3Cc5cc(C)c(OC)c(O)c5C(C21)N3C)OCO4", "425362-245-T-J1 tumor spheroids, viability % test/control", 0.15]
]}

# ---- query molecule ----
Exercise: Query viability, T/C for Cc1sc2c(c1C)C(c1ccc(Cl)cc1)=NC(CC(=O)Nc1ccc(O)cc1)c1nnc(C)n1-2 (centres undefined) + COc1cc2c(cc1O)CCNC21CSC2c3c(OC(C)=O)c(C)c4c(c3C(COC1=O)N1C(O)C3Cc5cc(C)c(OC)c(O)c5C(C21)N3C)OCO4
Solution: 0.76
